Data provenance is paper PMC4144951.

molecular target: the molecule itself; assay: SEC; 100 µl at 2.5, 5 and 10 mg/ml on Superdex 200 10/300 GL, 4°C, 25 mM HEPES pH 7.5, 150 mM NaCl, 2.5 mM DTT; apparent MW from column calibration; the shift of the peak with loaded concentration is read as self-association of the dimers with each other (dimer to higher species)
observed.property: concentration dependence of apparent MW

HSPB6 Δ36–40 (natural protein, human, UniProt O14558 1-160, looked up, HSPB6, human, full-length protein with residues 36-40 deleted; source: E. coli NiCo21 (DE3) with pRARE2, purified (subtractive IMAC, anion exchange, SEC); not shown: SUMO, N-terminal, cleaved) MEIPVPVQPSWLRRASAPLPGLSAPGRLFDQRFGEELAALCPTTLAPYYLRAPSVALPVAQVPTDPGHFSVLLDVKHFSPEEIAVKVVGEHVEVHARHEERPDEHGFVAREFHRRYRLPPGVDPAAVTSALSPEGVLSIQAAPASAQAPPPAAAK = 1.8 kDa/(mg/ml)

Per the record, HSPB6 Δ21–30 (natural protein, human, UniProt O14558 1-160, looked up, HSPB6, human, full-length protein with residues 21-30 deleted; source: E. coli NiCo21 (DE3) with pRARE2, purified (subtractive IMAC, anion exchange, SEC); not shown: SUMO, N-terminal, cleaved) MEIPVPVQPSWLRRASAPLPQRFGEGLLEAELAALCPTTLAPYYLRAPSVALPVAQVPTDPGHFSVLLDVKHFSPEEIAVKVVGEHVEVHARHEERPDEHGFVAREFHRRYRLPPGVDPAAVTSALSPEGVLSIQAAPASAQAPPPAAAK has concentration dependence of apparent MW of 1.29 kDa/(mg/ml)

Per the record, HSPB6 Δ11–20 (natural protein, human, UniProt O14558 1-160, looked up, HSPB6, human, full-length protein with residues 11-20 deleted; also called ΔN11–20; source: E. coli NiCo21 (DE3) with pRARE2, purified (subtractive IMAC, anion exchange, SEC); not shown: SUMO, N-terminal, cleaved) MEIPVPVQPSGLSAPGRLFDQRFGEGLLEAELAALCPTTLAPYYLRAPSVALPVAQVPTDPGHFSVLLDVKHFSPEEIAVKVVGEHVEVHARHEERPDEHGFVAREFHRRYRLPPGVDPAAVTSALSPEGVLSIQAAPASAQAPPPAAAK has concentration dependence of apparent MW of 0.81 kDa/(mg/ml)
